details: in DMF, 323.15 K
readout kind: solubility (mole fraction)

>>> print(df.to_string())
                                   molecule                readout_kind  reading
0  CCc1ccc(CCOc2ccc(CC3SC(=O)NC3=O)cc2)nc1.Cl (stereo unspecified)  solubility (mole fraction)   0.0323

###

details: in n-propanol, 283.15 K
readout kind: solubility (mole fraction)

>>> print(df.to_string())
                                   molecule   reading
0  CCc1ccc(CCOc2ccc(CC3SC(=O)NC3=O)cc2)nc1.Cl (stereo unspecified)  0.000395
